Provenance of the data: patent US12577206B2

# Measurement Target: human FPR1 (Homo sapiens)
# Sequence (P21462 whole entry): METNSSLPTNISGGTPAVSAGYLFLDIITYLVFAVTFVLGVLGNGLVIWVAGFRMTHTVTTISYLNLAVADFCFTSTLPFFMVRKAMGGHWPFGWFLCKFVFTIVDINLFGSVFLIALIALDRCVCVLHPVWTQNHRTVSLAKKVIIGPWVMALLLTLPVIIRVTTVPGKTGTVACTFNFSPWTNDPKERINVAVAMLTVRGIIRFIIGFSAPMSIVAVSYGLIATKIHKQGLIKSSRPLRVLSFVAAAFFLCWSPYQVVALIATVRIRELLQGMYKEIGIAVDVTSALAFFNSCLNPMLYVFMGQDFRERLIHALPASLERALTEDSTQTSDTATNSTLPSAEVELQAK
# Protocol Text: FPR1 cyclic adenosine monophosphate (cAMP) assay
# Recorded Conditions: CHO cells overexpressing human FPR1; forskolin 10 μM; inhibition of cAMP production; HTRF; read-out: hFPR1 cAMP2 EC50
# thresholds on EC50 define classes: bin 1: < 700 nM; bin 2: ≥ 700 nM and < 3000 nM; bin 3: ≥ 3000 nM

>>> assigned_category("COc1cc(F)c(-c2c(NC(=O)c3ccc(OC(F)F)cc3)c(=O)n(-c3nc(N(C)S(C)(=O)=O)ccc3C(F)(F)F)n2C)c(F)c1 [Example 241]")
"bin 3"
>>> assigned_category("COc1cc(F)c(-c2c(NC(=O)c3ccc(OC(F)F)cc3)c(=O)n(-c3nc(N4CCCC4=O)ccc3C(F)(F)F)n2C)c(F)c1 [Example 297]")
"bin 1"
>>> assigned_category("COc1cc(F)c(-c2c(NC(=O)c3ccc(OC(F)F)cc3)c(=O)n(-c3nc(N4CC(O)C4)ccc3Cl)n2C)c(F)c1 [Example 300]")
"bin 3"
>>> assigned_category("COc1cc(F)c(-c2c(NC(=O)c3ccc(OC(F)F)cc3)c(=O)n(-c3nc(N4CCN(C)CC4)ccc3Cl)n2C)c(F)c1 [Example 143]")
"bin 3"
>>> assigned_category("COc1cc(F)c(-c2c(NC(=O)c3ccc(OC(F)F)cc3)c(=O)n(-c3nc(NC[C@@H](C)O)ccc3C(F)(F)F)n2C)c(F)c1 [Example 273]")
"bin 3"
>>> assigned_category("COc1cc(F)c(-c2c(NC(=O)c3ccc(OC(F)F)cc3)c(=O)n(-c3nc(N4CC[C@H](O)C4)ccc3C(F)(F)F)n2C)c(F)c1 [Example 280]")
"bin 2"
>>> assigned_category("COc1cc(F)c(-c2c(NC(=O)c3ccc(OC(F)F)cc3)c(=O)n(-c3cccc(C)c3C)n2C)c(F)c1 [Example 3]")
"bin 2"
>>> assigned_category("COc1cccc(-n2c(=O)c(NC(=O)c3ccc(OC(F)F)cc3)c(-c3ccc(OC(F)F)cc3)n2C)n1 [Example 315]")
"bin 1"
>>> assigned_category("COc1cc(N2C[C@@H](C)O[C@@H](C)C2)nc(-n2c(=O)c(NC(=O)c3ccc(OC(F)F)cc3)c(-c3c(F)cc(OC)cc3F)n2C)c1 [Example 92]")
"bin 2"
>>> assigned_category("Cn1c(-c2ccc(OC(F)F)cc2)c(NC(=O)c2ccc(OC(F)F)cc2)c(=O)n1-c1nc(Cl)ccc1C(F)(F)F [Example 317]")
"bin 2"
>>> assigned_category("COc1cc(F)c(-c2c(NC(=O)c3ccc(OC(F)F)cc3)c(=O)n(-c3nccc(C4CCCCC4)c3C#N)n2C)c(F)c1 [Example 199]")
"bin 2"
>>> assigned_category("COc1cc(F)c(-c2c(NC(=O)c3ccc(OC(F)F)cc3)c(=O)n(-c3cccc(OC)c3Cl)n2C)c(F)c1 [Example 181]")
"bin 1"
>>> assigned_category("COc1ccc(-c2c(NC(=O)c3ccc(OC(F)F)cc3)c(=O)n(-c3ncccc3C(F)(F)F)n2C)cc1 [Example 250]")
"bin 2"
>>> assigned_category("COc1cc(F)c(-c2c(NC(=O)c3ccc(OC(F)F)cc3)c(=O)n(-c3cccc(Cl)c3Cl)n2C)c(F)c1 [Example 34]")
"bin 2"
>>> assigned_category("COc1cc(F)c(-c2c(NC(=O)c3ccc(OC(F)F)cc3)c(=O)n(-c3cc(C)cc(OC4CCOC4)n3)n2C)c(F)c1 (centres unmarked) [Example 359]")
"bin 3"
>>> assigned_category("COc1cc(F)c(-c2c(NC(=O)c3ccc(OC(F)F)cc3)c(=O)n(-c3nc(NCC(N)=O)ccc3C(F)(F)F)n2C)c(F)c1 [Example 226]")
"bin 3"
>>> assigned_category("COc1cc(F)c(-c2c(NC(=O)c3ccc(OC(F)F)cc3)c(=O)n(-c3cc(OCC(C)O)cc(C)n3)n2C)c(F)c1 (centres unmarked) [Example 394]")
"bin 2"
>>> assigned_category("COc1cc(F)c(-c2c(NC(=O)c3ccc(OC(F)F)cc3)c(=O)n(-c3nc(N4CCN(CC(F)F)CC4)ccc3C(F)(F)F)n2C)c(F)c1 [Example 270]")
"bin 3"
>>> assigned_category("COc1cc(F)c(-c2c(NC(=O)c3ccc(OC(F)F)cc3)c(=O)n(-c3nc(N4CCC(C(N)=O)C4)ccc3C(F)(F)F)n2C)c(F)c1 (centres unmarked) [Example 305]")
"bin 3"
>>> assigned_category("COc1cc(F)c(-c2c(NC(=O)c3ccc(OC(F)F)cc3)c(=O)n(-c3cc(Cl)ccc3Cl)n2C)c(F)c1 [Example 176]")
"bin 3"
>>> assigned_category("COc1cc(F)c(-c2c(NC(=O)c3ccc(OC(F)(F)F)cc3)c(=O)n(-c3cc(C)ccn3)n2C)c(F)c1 [Example 151]")
"bin 2"
>>> assigned_category("COc1cc(F)c(-c2c(NC(=O)c3ccc(OC(F)(F)F)cc3)c(=O)n(-c3cccc(C4CC4)n3)n2C)c(F)c1 [Example 167]")
"bin 1"
>>> assigned_category("COc1cc(F)c(-c2c(NC(=O)c3ccc(OC(F)F)cc3)c(=O)n(-c3ncccc3Br)n2C)c(F)c1 [Example 165]")
"bin 3"
>>> assigned_category("COc1cc(F)c(-c2c(NC(=O)c3ccc(OC(F)F)cc3)c(=O)n(-c3nc(Nc4cn(C)nc4C)ccc3C(F)(F)F)n2C)c(F)c1 [Example 228]")
"bin 3"
>>> assigned_category("COc1cc(F)c(-c2c(NC(=O)c3ccc(OC(F)F)cc3)c(=O)n(-c3cc(OCC4CCCO4)cc(C)n3)n2C)c(F)c1 (centres unmarked) [Example 396]")
"bin 1"
